- system: HLA-B*39:01
- assayOverview: IEDB peptide-MHC binding, purified MHC/direct/fluorescence; filed as Kd, often an IC50 or EC50 that approximates it; bounds were set here for any values at or beyond the usual limits of such assays
- experimentalContext: source organism: Yersinia enterocolitica subsp. enterocolitica 8081
measurementLabel: Kd

Consider YIYDGKVNY . Its measured Kd is ≥ 20 µM

----------
- system: HLA-A*31:01
- assayOverview: IEDB peptide-MHC binding, purified MHC/competitive/radioactivity; filed as Kd, often an IC50 or EC50 that approximates it; bounds were set here for any values at or beyond the usual limits of such assays
- experimentalContext: source organism: Vaccinia virus WR
Provide the recorded log10 of Kd for the entries that follow.
Quick note: numbers are log10 of Kd, with nM as the unit.

log10 of Kd on HLA-A*31:01 for SIILANERY is 4.30

log10 of Kd on HLA-A*31:01 for SARNKLFKR is 0.10

log10 of Kd on HLA-A*31:01 for RIGTAATKR is 1.24

log10 of Kd on HLA-A*31:01 for TQMRTPLHK is 3.55

log10 of Kd on HLA-A*31:01 for SMGFKVTTR is 0.29

log10 of Kd on HLA-A*31:01 for QLCYCPASKK is 4.10

log10 of Kd on HLA-A*31:01 for VSKHWELTNK is 3.25

log10 of Kd on HLA-A*31:01 for FSPENKAFK is 3.83

log10 of Kd on HLA-A*31:01 for STELIRRVR is 1.96

log10 of Kd on HLA-A*31:01 for YSKKFQESFY is 4.16

log10 of Kd on HLA-A*31:01 for SIGNVTRLFY is 3.48

log10 of Kd on HLA-A*31:01 for TFVNFNSVK is 2.01

log10 of Kd on HLA-A*31:01 for PSRSKMLKR is 3.28

log10 of Kd on HLA-A*31:01 for AAGIIILMEY is 3.01

log10 of Kd on HLA-A*31:01 for DLDKVYEILK is 4.08

log10 of Kd on HLA-A*31:01 for LILNFLDWIK is 2.21

log10 of Kd on HLA-A*31:01 for AARILSEKR is 1.56

log10 of Kd on HLA-A*31:01 for ISSVQLSNNK is 3.65

----------
- system: HLA-A*24:02
- assayOverview: IEDB peptide-MHC binding, purified MHC/competitive/radioactivity; filed as Kd, often an IC50 or EC50 that approximates it; bounds were set here for any values at or beyond the usual limits of such assays
- experimentalContext: source organism: Dengue virus 1 Brazil/97-11/1997
measurementLabel: Kd
Reply with the number and its unit after it.

Consider CYSQVNPLTL . Its measured Kd is 144 nM

----------
- system: HLA-B*58:01
- assayOverview: IEDB peptide-MHC binding, purified MHC/direct/fluorescence; filed as Kd, often an IC50 or EC50 that approximates it; bounds were set here for any values at or beyond the usual limits of such assays
- experimentalContext: source organism: Pseudomonas aeruginosa UCBPP-PA14
measurementLabel: Kd

Consider ASDDLEHWQ . Its measured Kd is ≥ 20 µM

----------
- system: HLA-A*01:01
- assayOverview: IEDB peptide-MHC binding, purified MHC/direct/fluorescence; filed as Kd, often an IC50 or EC50 that approximates it; bounds were set here for any values at or beyond the usual limits of such assays
- experimentalContext: source organism: Mammarenavirus lassaense
measurementLabel: pKd
Quick note: pKd means taking -log10 of the concentration in moles per liter.

Consider LIDGRTSFY . Its measured pKd is 9.05
